biological target: TYK2 (Homo sapiens); construct: endogenous in cells; host or cells: Molt4 (ATCC CRL-1582) and Ramos (ATCC CRL-1596), mixed lysate 1:2; assay: Kinobeads assay, TYK2 (competition binding in mixed Molt4/Ramos cell lysate, dot blot detection); details: Kinobeads assay, Molt4/Ramos lysate; read-out: TYK2 Band (Kinobeads assay potency, IC50)
Sequence (P29597 whole entry): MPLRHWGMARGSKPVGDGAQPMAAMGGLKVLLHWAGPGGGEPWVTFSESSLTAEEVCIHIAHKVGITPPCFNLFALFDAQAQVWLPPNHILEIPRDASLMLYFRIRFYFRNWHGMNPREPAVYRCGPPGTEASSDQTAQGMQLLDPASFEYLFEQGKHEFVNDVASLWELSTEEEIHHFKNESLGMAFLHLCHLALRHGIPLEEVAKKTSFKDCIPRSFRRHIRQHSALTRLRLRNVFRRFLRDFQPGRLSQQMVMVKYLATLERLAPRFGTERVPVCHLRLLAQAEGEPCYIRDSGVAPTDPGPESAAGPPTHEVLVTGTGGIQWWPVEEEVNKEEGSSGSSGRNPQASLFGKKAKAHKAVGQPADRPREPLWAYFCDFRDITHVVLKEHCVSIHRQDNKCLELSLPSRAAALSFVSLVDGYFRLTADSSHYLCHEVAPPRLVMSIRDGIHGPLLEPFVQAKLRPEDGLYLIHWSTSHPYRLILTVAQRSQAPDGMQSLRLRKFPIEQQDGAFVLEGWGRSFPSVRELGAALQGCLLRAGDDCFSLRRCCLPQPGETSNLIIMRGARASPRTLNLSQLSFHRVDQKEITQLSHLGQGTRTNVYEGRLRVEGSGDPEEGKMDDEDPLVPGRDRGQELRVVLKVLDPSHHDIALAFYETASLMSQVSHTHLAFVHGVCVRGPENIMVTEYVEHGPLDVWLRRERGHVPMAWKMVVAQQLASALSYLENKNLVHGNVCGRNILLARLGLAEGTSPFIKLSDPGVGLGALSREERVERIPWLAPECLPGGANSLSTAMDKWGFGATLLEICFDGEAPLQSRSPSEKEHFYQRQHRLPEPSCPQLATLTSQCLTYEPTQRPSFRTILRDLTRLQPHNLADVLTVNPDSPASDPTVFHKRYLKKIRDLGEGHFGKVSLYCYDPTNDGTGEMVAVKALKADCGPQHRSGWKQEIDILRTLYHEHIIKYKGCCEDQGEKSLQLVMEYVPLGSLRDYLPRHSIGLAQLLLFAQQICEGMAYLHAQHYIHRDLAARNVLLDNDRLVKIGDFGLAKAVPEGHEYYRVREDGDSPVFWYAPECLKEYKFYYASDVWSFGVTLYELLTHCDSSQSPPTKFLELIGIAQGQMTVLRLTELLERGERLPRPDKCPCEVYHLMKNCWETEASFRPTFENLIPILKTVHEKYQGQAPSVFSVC
readout name: IC50

Request the reported IC50 associated with "CN(C)C(=O)Cn1cc(Nc2ncc(Cl)c(NCc3cc(Br)cc(F)c3F)n2)cn1" 100 to 1000 nM

Okay, and "COc1ccc(F)c(CNc2ccnc(Nc3cnn(CC(=O)N[C@@H](C)CO)c3)n2)c1F" ? ≤ 10 nM

Okay, and "CC(C)CNC(=O)Cn1cc(Nc2ncc(Cl)c(NCc3cccc(OC(F)F)c3)n2)cn1" ? 10 to 100 nM

Okay, and "Cn1cc(Nc2ncc(Cl)c(NCc3cncc(F)c3)n2)cn1" ? 100 to 1000 nM
